- Subject of test: T1, PUF4 RNA-binding domain (Saccharomyces cerevisiae, UniProt P25339 537-888)
- T1 sequence: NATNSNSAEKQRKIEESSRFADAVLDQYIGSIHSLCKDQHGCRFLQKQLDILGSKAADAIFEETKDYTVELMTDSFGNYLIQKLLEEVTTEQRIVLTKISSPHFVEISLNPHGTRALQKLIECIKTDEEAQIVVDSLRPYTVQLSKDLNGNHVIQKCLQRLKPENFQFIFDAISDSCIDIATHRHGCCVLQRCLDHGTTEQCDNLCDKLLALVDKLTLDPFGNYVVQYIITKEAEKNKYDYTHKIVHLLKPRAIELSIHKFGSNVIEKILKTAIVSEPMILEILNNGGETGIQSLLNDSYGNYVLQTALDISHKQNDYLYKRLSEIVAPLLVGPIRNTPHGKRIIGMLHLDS
- Assay summary: Mg; RNA-MaP; 20 mM Na-HEPES pH 7.4, 30 mM KOAc, 0.75 mM MgCl2, 0.1% Tween-20, 5% glycerol, 0.1 mg/mL BSA, 2 mM DTT; 25 C; 0.0125-409.6 nM protein
- Condition details: tags: N-His6-TEV cleaved; C-SNAP kept, Cy3B-labelled; label: tethered on chip by stalled RNA polymerase
Kd vs 0.005 µM: less than gives fulfilled; not less than gives not fulfilled.

Id_ii_S2_P4E.4_K4.3_C4.2_[T-1A]_H4.3_A4.1_F4.1_T4.2_[G10A] (ssRNA) RNA: UUUGAUUAAUAUGAUAUCGUUCUUUCUCAACACUAUUAAUUUCUUUCUCGAUAUCAUAUUAAUCUUU : not fulfilled
ACAAACAAACACUAUAGGACAAAC (ssRNA) [Id_ii_S3_P3E.4_K3.3_C3.2_[C-2A]_[T-1A]_H3.3_A3.1_F3.1_T3.2_[T9G]_[A10G]] : not fulfilled
ACAAACGCACACUAUAAUACAAAC (ssRNA) [Id_ii_S3_P3E.4_K3.3_C3.2_[C-2G]_[T-1C]_H3.3_A3.1_F3.1_T3.2_[T9A]_[A10T]] : not fulfilled
Ic_S2_P5E.1_K5.1_C5.1_H5.1_A5.1_[T5C]_[T6C]_[A7G]_F5.1_[T8G]_[A10C]_T5.1 (ssRNA) RNA: UUUGAUUAAUAUGAUAUCGUUCUUUCUUGUACCGGUCUUCUUUCUCGAUAUCAUAUUAAUCUUU : not fulfilled
ACAAACUGACACUAUACCACAAAC (ssRNA) [Id_ii_S3_P3E.4_K3.3_C3.2_[C-2T]_[T-1G]_H3.3_A3.1_F3.1_T3.2_[T9C]_[A10C]] : not fulfilled
Id_ii_S4_P5E.2_K5.1_C5.2_[C-2A]_[T-1C]_H5.1_A5.1_F5.1_T5.2_[T11A]_[A12T] (ssRNA) RNA: UUUGACAACUGAUCGUUCUUUCUACUGUAUUAUUAAUUUCUUUCUCGAUCAGUUGUCUUU : fulfilled
ACAAACCAACACUAUUAGUACAAAC (ssRNA) [Id_ii_S3_P4E.4_K4.3_C4.2_[T-1A]_H4.3_A4.1_F4.1_T4.2] : not fulfilled
UCUCUUUGUAUUAUUAUCUCUU (ssRNA) [If_S1_P5E.1_K5.1_C5.1_H5.1_A5.1_F5.1_T5.1] : fulfilled
Ib_S2_P3E.1_K3.1_C3.1_H3.1_[G2C]_[A4C]_A3.1_F3.1_T3.1 (ssRNA) RNA: UUUGAUUAAUAUGAUAUCGUUCUUUCUUCUCUAUAUUCUUUCUCGAUAUCAUAUUAAUCUUU : not fulfilled
Id_ii_S2_P4E.2_K4.1_C4.2_[C-2A]_H4.1_A4.1_F4.1_T4.2_[G10A] (ssRNA) RNA: UUUGAUUAAUAUGAUAUCGUUCUUUCUAUUGUAUAUUAAUUUCUUUCUCGAUAUCAUAUUAAUCUUU : fulfilled
UCUCUUUGUAAACACUUCUCUU (ssRNA) [Ic_S1_P5E.1_K5.1_C5.1_H5.1_A5.1_[T5A]_[T6A]_[A7C]_F5.1_[T8A]_[T9C]_[A10T]_T5.1] : not fulfilled
